For each record, write down the corresponding CLint scaled at 0.5 h, 0.5 µM.
# test.protocol: in vitro
# condition.context: mouse, liver microsomes
# Description: Metabolic stability in mouse liver microsomes assessed as intrinsic clearance at 0.5 uM incubated for 30 mins by LC-MS/MS analysis

# map each molecule to its CLint scaled at 0.5 h, 0.5 µM
1. CC(C)c1cc(C(=O)N2CCCC(O)(c3cc4ncccc4[nH]3)C2)on1 (stereo not given)
2. O=C(Nc1ccc(-c2cc3ncccc3[nH]2)cc1)c1ccccc1
3. O=C(c1ccccc1)N1CCCC(c2cn3nc(Cl)ccc3n2)C1 (stereo not given)
4. O=C(c1cccc(C(F)(F)F)n1)N1CCCC(c2cc3ncccc3[nH]2)C1 (stereo not given)
5. O=C(CCc1nc2ncc(Cl)cc2[nH]1)Nc1cccc(F)c1

# output
1: 616 to 2560 mL/min/kg; 2: ≥ 597 mL/min/kg; 3: > 772 mL/min/kg; 4: 315 to 1070 mL/min/kg; 5: > 963 mL/min/kg
